# reported self-splicing fitness (ln); entries follow
# MEASUREMENT DESCRIPTION: self-splicing fitness, log relative to wild type (ln ratio); higher = more splicing; Tetrahymena group I intron in knt gene, E. coli kanamycin selection, DiMSum; sequences stand for … in CUCUCU…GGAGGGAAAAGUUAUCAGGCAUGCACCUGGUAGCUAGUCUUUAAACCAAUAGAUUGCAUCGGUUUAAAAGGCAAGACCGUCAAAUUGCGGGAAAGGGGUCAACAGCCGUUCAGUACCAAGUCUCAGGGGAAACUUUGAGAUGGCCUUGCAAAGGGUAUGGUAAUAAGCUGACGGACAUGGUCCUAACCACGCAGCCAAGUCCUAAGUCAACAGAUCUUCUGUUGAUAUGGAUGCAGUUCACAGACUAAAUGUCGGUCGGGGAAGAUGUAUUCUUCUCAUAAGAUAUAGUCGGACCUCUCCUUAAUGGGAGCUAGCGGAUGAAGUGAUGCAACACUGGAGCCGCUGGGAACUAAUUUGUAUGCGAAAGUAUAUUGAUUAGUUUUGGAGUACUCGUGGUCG;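 note: selection with 25 µg/mL kanamycin versus none on LB agar overnight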
# TEST CONDITIONS: 37 °C
Give the value as a plain number.

These solved cases illustrate the format of a correct answer.
UCGAAGCAAUAUUACGGCUG	-0.494
AUAAAGCAAUAUUACGACAG	-1.15

IN: Give the value of self-splicing fitness (ln) reported for the following: CGAUAGCAAUAUUACGAUAC
OUT: -2.88

IN: Give the value of self-splicing fitness (ln) reported for the following: GGCAAGCAAUAUUACGAAAA
OUT: -1.41
